B1: LINE1-mini (parent)
chain: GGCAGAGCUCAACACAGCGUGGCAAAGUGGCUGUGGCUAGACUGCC

variants of: B1; assay: self-cleavage, relative activity (ratio to wild type); higher = more cleavage; in vitro, sequencing; the parent is a self-cleaving ribozyme
For each entry below, report its self-cleavage value.
Lab note: write the figure by itself, no unit.

Query (variant): A14U U20C ; field requested: self-cleavage
0.19

Query (variant): C37G C46A ; field requested: self-cleavage
0.02

Query (variant): G33U A41G ; field requested: self-cleavage
0.07

Query (variant): A24G G30C ; field requested: self-cleavage
1.12

Query (variant): C13U C46U ; field requested: self-cleavage
0.3

Query (variant): G27A G30C ; field requested: self-cleavage
1.53

Query (variant): A6C G22A ; field requested: self-cleavage
0.66

Query (variant): G27A C37U ; field requested: self-cleavage
0.05

Query (variant): G7C G27C ; field requested: self-cleavage
0.06

Query (variant): G21A G30U ; field requested: self-cleavage
2.01

Query (variant): A14U A16G ; field requested: self-cleavage
0.09

Query (variant): A24G G35A ; field requested: self-cleavage
0.12

Query (variant): G2A A14U ; field requested: self-cleavage
0.37

Query (variant): C10A G17U ; field requested: self-cleavage
0.05

Query (variant): U28G G40A ; field requested: self-cleavage
0.12

Query (variant): G1U C18G ; field requested: self-cleavage
0.06

Query (variant): G19U U28C ; field requested: self-cleavage
0.67

Query (variant): U32A G36A ; field requested: self-cleavage
0.06

Query (variant): G27A U32C ; field requested: self-cleavage
0.15

Query (variant): G2A U32G ; field requested: self-cleavage
0.2

Query (variant): A4G C13A ; field requested: self-cleavage
0.27

Query (variant): G7U C23U ; field requested: self-cleavage
0.06

Query (variant): U20C U38G ; field requested: self-cleavage
0.01

Query (variant): G2C C37A ; field requested: self-cleavage
0.06

Query (variant): A4G G44U ; field requested: self-cleavage
0.16

Query (variant): G22A C46U ; field requested: self-cleavage
0.84

Query (variant): A12U G36A ; field requested: self-cleavage
0.04

Query (variant): G2C U28A ; field requested: self-cleavage
0.23

Query (variant): A16U C42U ; field requested: self-cleavage
0.09

Query (variant): C23U G40A ; field requested: self-cleavage
0.12

Query (variant): C31U U43C ; field requested: self-cleavage
0.06

Query (variant): C23G A39U ; field requested: self-cleavage
0.69

Query (variant): G2A A41U ; field requested: self-cleavage
0.66

Query (variant): G22U G44A ; field requested: self-cleavage
0.85

Query (variant): U43G G44C ; field requested: self-cleavage
0.32

Query (variant): C8G C15A ; field requested: self-cleavage
0.11

Query (variant): A26G G35U ; field requested: self-cleavage
0.16

Query (variant): G2U A11G ; field requested: self-cleavage
0.02

Query (variant): A6G G30A ; field requested: self-cleavage
0.19

Query (variant): G17U G36A ; field requested: self-cleavage
0.09

Query (variant): A26G G29A ; field requested: self-cleavage
0.36

Query (variant): A4U G35U ; field requested: self-cleavage
0.13

Query (variant): G21A U28G ; field requested: self-cleavage
1.2

Query (variant): G29C G33C ; field requested: self-cleavage
0.1

Query (variant): G1C C45A ; field requested: self-cleavage
0.16

Query (variant): G5U C18U ; field requested: self-cleavage
0.1

Query (variant): G27C U32C ; field requested: self-cleavage
0.12

Query (variant): C15A U32A ; field requested: self-cleavage
0.06

Query (variant): A24G C42A ; field requested: self-cleavage
0.19

Query (variant): A41G C42G ; field requested: self-cleavage
0.06

Query (variant): G40A U43C ; field requested: self-cleavage
0.08

Query (variant): G7U A39G ; field requested: self-cleavage
0.06

Query (variant): U34G C37G ; field requested: self-cleavage
0.07

Query (variant): U28C G36C ; field requested: self-cleavage
0.28

Query (variant): G2A C13G ; field requested: self-cleavage
0.45

Query (variant): A12G C42G ; field requested: self-cleavage
0.02

Query (variant): U34C C37G ; field requested: self-cleavage
0.04

Query (variant): C3G C8U ; field requested: self-cleavage
0.39

Query (variant): A6U C13G ; field requested: self-cleavage
0.28

Query (variant): A14C A24U ; field requested: self-cleavage
0.07

Query (variant): G36C U43G ; field requested: self-cleavage
0

Query (variant): A12G A14U ; field requested: self-cleavage
0.03

Query (variant): G1A A14U ; field requested: self-cleavage
0.27

Query (variant): C10G U34A ; field requested: self-cleavage
0.03

Query (variant): G35A A41U ; field requested: self-cleavage
0.14

Query (variant): G1C C10U ; field requested: self-cleavage
0.04

Query (variant): C8G G33U ; field requested: self-cleavage
0.03

Query (variant): C37U U38A ; field requested: self-cleavage
0.04

Query (variant): G7A A39C ; field requested: self-cleavage
0.08

Query (variant): C8G A26C ; field requested: self-cleavage
0.14

Query (variant): C10A G27C ; field requested: self-cleavage
0.04

Query (variant): C10U G27C ; field requested: self-cleavage
0.23

Query (variant): G22A A24G ; field requested: self-cleavage
1.53

Query (variant): A24C C42A ; field requested: self-cleavage
0.15

Query (variant): G5U U34A ; field requested: self-cleavage
0.04

Query (variant): C10G G21A ; field requested: self-cleavage
0.18

Query (variant): G1U G36A ; field requested: self-cleavage
0.11

Query (variant): G35U C46U ; field requested: self-cleavage
0.1

Query (variant): G5C U9G ; field requested: self-cleavage
0.04

Query (variant): G35C C46A ; field requested: self-cleavage
0.1

Query (variant): G21A G33C ; field requested: self-cleavage
0.12

Query (variant): G29A A41C ; field requested: self-cleavage
0.05

Query (variant): A4C U20G ; field requested: self-cleavage
0.1

Query (variant): G33C U38G ; field requested: self-cleavage
0.03

Query (variant): G22A G33A ; field requested: self-cleavage
0.52

Query (variant): G33U C37G ; field requested: self-cleavage
0.05

Query (variant): A12G G17A ; field requested: self-cleavage
0.02

Query (variant): U9A A41C ; field requested: self-cleavage
0.08

Query (variant): G27A C31U ; field requested: self-cleavage
0.26

Query (variant): C15G G33C ; field requested: self-cleavage
0.25

Query (variant): C23A U34G ; field requested: self-cleavage
0.22
